# System: NCI-H719 tumor spheroids, viability
# Method description: Anticancer human tumor NCI-H719 cell line growth inhibition;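 further: spheroids exposed to compounds for seven days; percent viability relative to DMSO vehicle control as 100%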
# Run conditions: second compound 0.0949 µM; first compound 0.1 µM; hits give low values; spheroids with HUVEC and MSC
Answer each item with its documented viability, T/C.
One number for each entry, in %.

Example entries and their recorded answers appear below.
COc1ccc([C@@H](O)c2cc(-c3ncnc4cc(N5CCOCC5)ccc34)c(F)cc2Cl)nn1 + CC[C@@]1(O)C(=O)OCc2c1cc1n(c2=O)Cc2cc3c(CN(C)C)c(O)ccc3nc2-1 : 7.08
COc1cc(C)[nH]c(=O)c1CN1CCc2c(Cl)cc(C(OC)C3COC3)c(Cl)c2C1=O (stereo unspecified) + CC[C@@]1(O)C(=O)OCc2c1cc1n(c2=O)Cc2cc3c(CN(C)C)c(O)ccc3nc2-1 : 7.8
CC(C)n1c(=O)n(C)c2cnc3cc(F)c(-c4ccc(OCCCN5CCCCC5)nc4)cc3c21 + CC[C@@]1(O)C(=O)OCc2c1cc1n(c2=O)Cc2cc3c(CN(C)C)c(O)ccc3nc2-1 : 6.79

Dear colleague, could you send me viability, T/C for each of the items below? Thanks.
1. CC1COCCN1c1cc(-c2ccnn2C)c2ccnc(-c3ccn[nH]3)c2n1 (stereo unspecified) + CC[C@@]1(O)C(=O)OCc2c1cc1n(c2=O)Cc2cc3c(CN(C)C)c(O)ccc3nc2-1
2. [2H]c1nc(C)nc([2H])c1-c1cc(NC[C@@H](C)c2cccc3c(C(=O)NC)ccnc23)ncn1 + CC[C@@]1(O)C(=O)OCc2c1cc1n(c2=O)Cc2cc3c(CN(C)C)c(O)ccc3nc2-1
3. Cc1cc(C)c(CNC(=O)c2cc(-c3ccc(CN4CCOCC4)cc3)cc3c2cnn3C2CCCC2)c(=O)[nH]1 + CC[C@@]1(O)C(=O)OCc2c1cc1n(c2=O)Cc2cc3c(CN(C)C)c(O)ccc3nc2-1

Completion:
5.72
7.8
5.83
